Test system: 786-0
protocol: NCI tumour cell line growth inhibition, 48 h
Activity calls are given as the source filed them. No stated cut-off is given here; in the data, active = GI50 up to about 1.1 µM and inactive = higher.
Classes used: active, inactive

compound | group label
NC(CNO)C(=O)O (stereo not drawn) | inactive
Cc1ccc(S(=O)(=O)CC2(Br)CCc3ccccc3C2=O)cc1 (stereo not drawn) | inactive
N=C(NNS(=O)(=O)c1ccccc1)Oc1ccc(Br)cc1Br | inactive
COc1ccc(/C=N/NC(=O)NCCNCCO)cc1 | inactive
c1cnc2c(c1)Nc1cnncc1S2 | inactive
O=C1Nc2ccccc2C1=Nc1ccc(S(=O)(=O)Nc2nccs2)cc1 | inactive
CS/C(=N/C(=O)c1ccccc1Cl)SCCS/C(=N\C(=O)c1ccccc1Cl)SC | inactive
O=C(N/C(=C\c1cc(Cl)ccc1Cl)c1nc2c(O)nc(S)nc2[nH]1)c1ccccc1 | inactive
C#CC1(O)CCC2[C@@H]3CCc4cc(Oc5nc(F)nc(-c6c7ccccc7cn6C)n5)ccc4C3CC[C@@]21C (stereo partly drawn) | inactive
CCN(CC)c1nc(N(C)C)c2ccccc2n1 | inactive
O=C1C(O)=C(C(CCc2ccccc2)C2=C(O)C(=O)c3ccccc3C2=O)C(=O)c2ccccc21 | inactive
COC(=O)C(I(OS(=O)(=O)c1ccc(C)cc1)c1ccccc1)=P(c1ccccc1)(c1ccccc1)c1ccccc1 | inactive
CCCC/C=C1\CCC(CN2CCCC2)C1=O (stereo not drawn) | inactive
Clc1ccc(C(c2ccccc2Cl)C(Cl)Cl)cc1 (stereo not drawn) | inactive
COc1ccc(C(NS(=O)(=O)c2ccc(C)cc2)c2c(C(CBr)OC)c3ccccc3n2S(=O)(=O)c2ccccc2)cc1OC (stereo not drawn) | inactive
Cc1ccc(C(=O)O)c(/C=C2\Cc3ccc(C)cc3C2=O)c1 | inactive
COc1ccc(C(=O)/C=C2\c3ccccc3C(=O)N2C)cc1 | inactive
CCOC(OCC)C(CCc1ccccc1)c1c(N)nc(N)[nH]c1=O (stereo not drawn) | inactive
Cc1ccc(NCCO)cc1 | inactive
O=C(O)c1ccc2c(O)c(O)ccc2c1 | inactive
CN1N=CSC12C(=O)N(c1ccc(Cl)cc1)C(=O)N2c1ccc(Cl)cc1 (stereo not drawn) | inactive
CCN(CCCl)CCCCCNc1c2ccccc2nc2ccc(OC)cc12 | active
CC(=O)N1C(=O)/C(=C\C(=O)c2ccc([N+](=O)[O-])cc2)c2ccccc21 | inactive

* * *

System: SK-OV-3
protocol: NCI tumour cell line growth inhibition, 48 h
Activity calls are given as the source filed them. Cut-off read from the data, not from the text of the source: active = GI50 up to about 1.1 µM and inactive = higher.
Reported GI50 by item:

compound | GI50
O=C(O)CCNc1ccccc1C(=O)O | > 100 µM (inactive)
O=C(/C=C/c1ccc(O)cc1)c1cc(Cl)ccc1O | > 100 µM (inactive)
CN1N=CSC12C(=O)N(c1ccc(Cl)cc1)C(=O)N2c1ccc(Cl)cc1 (stereo not drawn) | 3.95 µM (inactive)
COc1cccc(NC(=O)/C(CC(=O)CC(c2ccccc2)c2c(O)c3ccccc3oc2=O)=N\NC(C)(C)C)c1OC (stereo not drawn) | > 100 µM (inactive)
Cc1nc(O)nc(CC(O)(c2ccccc2)c2ccccc2)c1-c1ccccc1 | > 100 µM (inactive)
CC1(C)OCC(C2OC3OC(C)(C)OC3C2N)O1 (stereo not drawn) | > 100 µM (inactive)
COc1cccc2c1OC1c3ccccc3OCC1(O)C2 (stereo not drawn) | > 100 µM (inactive)
Cc1nc(Nc2ccccc2)sc1C(=O)CC(=O)C(=O)NC12CC3CC(CC(C3)C1)C2 | > 100 µM (inactive)
Nc1cc(C2CCCc3c2[nH]c2ccccc32)ccc1O (stereo not drawn) | > 100 µM (inactive)
CCc1cccc(C(C)C)c1N1C(=O)C(=O)C(c2nc3ccccc3s2)C(=O)C1=O | > 50 µM (inactive)
CCOc1ccc(NC(=O)C(=O)CC(=O)c2sc(NNC(C)=O)nc2C)cc1 | > 100 µM (inactive)
NCC1CCN(c2nc3ccccc3c3c2CCCC3)CC1 | 14.7 µM (inactive)
O=C1c2c(Br)sc(Br)c2C(=O)C1(O)O | > 100 µM (inactive)
CCOC(=O)c1cn(CC)c2ccc3ccsc3c2c1=O | > 100 µM (inactive)
CC(=O)[C@@]1(O)CC[C@H]2[C@@H]3C[C@H](C)C4=CC(=O)CC[C@]4(C)[C@H]3[C@@H](O)C[C@@]21C | > 100 µM (inactive)
CC(=O)O/C=C\OC1CCCC1 | > 100 µM (inactive)
C(=N\Nc1nnc2c(n1)[nH]c1ccccc12)/c1cccnc1 | > 100 µM (inactive)
COc1ccc(/C=N/NC(=O)NCCNCCO)cc1 | > 100 µM (inactive)
Cc1c(/N=N/c2ccc([N+](=O)[O-])cc2)nc2scc(-c3ccccc3)n12 | > 100 µM (inactive)
CN(C)c1ccc(/C=C(\NC(=O)c2ccccc2)c2nc3cncnc3[nH]2)cc1 | > 100 µM (inactive)
O=C(O)c1ccc2c(O)c(O)ccc2c1 | > 43.1 µM (inactive)
C=CCCCCCCCCC(=O)O [UNDECYLENIC ACID] | 138 µM (inactive)
CC(C)C1CC(CO)(CNc2cc(Cl)nc(N)n2)C1 (stereo not drawn) | > 100 µM (inactive)
